Recorded values, source patent US20250115620A1.

Exercise: for every item that follows, state its recorded CC50 at 5 days.
Assay: in vitro
Conditions: human, uninfected MT-4 cells

Past entries and their recorded results:
Using the record for `CC1=NO[C@@]2(CC[C@H](C)N3C[C@H]2n2cc(C(=O)NCc4ccc(F)c(Cl)c4F)c(=O)c(O)c2C3=O)[C@H]1C` , report its CC50 at 5 days.
13.6 µM

Using the record for `CNC1=NO[C@@]2(CC[C@H](C)N3C[C@H]2n2cc(C(=O)NCc4c(F)cc(F)cc4F)c(=O)c(O)c2C3=O)C1` , report its CC50 at 5 days.
41.1 µM

Using the record for `COCCOC1=NO[C@@]2(CC[C@H](C)N3C[C@H]2n2cc(C(=O)NCc4ccc(F)cc4F)c(=O)c(O)c2C3=O)C1` , report its CC50 at 5 days.
21.5 µM

Using the record for `C[C@H]1CC[C@]2(CC(=O)N(C)C2)[C@H]2CN1C(=O)c1c(O)c(=O)c(C(=O)NCc3c(F)cc(F)cc3F)cn12` , report its CC50 at 5 days.
≥ 50 µM

Would you mind giving CC50 at 5 days for every compound in the list below?
1. C[C@H]1CC[C@]2(CC(CC(F)(F)F)=NO2)[C@H]2CN1C(=O)c1c(O)c(=O)c(C(=O)NCc3c(F)cc(F)cc3F)cn12
2. C[C@H]1CC[C@]2(COC(Cc3ccccc3)O2)[C@H]2CN1C(=O)c1c(O)c(=O)c(C(=O)NCc3c(F)cc(F)cc3F)cn12 (stereo partly drawn)
3. CC1=NO[C@@]2(CC[C@H](C)N3C[C@H]2n2cc(C(=O)NCc4ccc(F)cc4F)c(=O)c(O)c2C3=O)[C@@H]1F (single isomer, unassigned) [Example 27 (peak 2)]
4. C[C@H]1CC[C@]2(CCC(=O)N2)[C@H]2CN1C(=O)c1c(O)c(=O)c(C(=O)NCc3c(F)cc(F)cc3F)cn12
5. COC[C@@H]1CO[C@]2(CC[C@H](C)N3C[C@H]2n2cc(C(=O)NCc4c(F)cc(F)cc4F)c(=O)c(O)c2C3=O)O1 (single isomer, unassigned) [168 (peak 2)]
6. C[C@H]1CC[C@]2(CC(=O)N(Cc3nc4ccccc4n3C)O2)[C@H]2CN1C(=O)c1c(O)c(=O)c(C(=O)NCc3c(F)cc(F)cc3F)cn12
7. CCC1=NO[C@@]2(CC[C@H](C)N3C[C@H]2n2cc(C(=O)NCc4c(F)cc(F)cc4F)c(=O)c(O)c2C3=O)O1

1. 10.2 µM
2. 6.88 µM
3. 45.6 µM
4. ≥ 50 µM
5. 37 µM
6. ≥ 50 µM
7. 13.6 µM
